- Tested target: UniProt P08246
- Procedure details: Elastase inhibition assay in COPD patient sputum
- Format: biochemical
# LipE values compiled below
Measurement label: LipE

| Molecule | Tested target | Measurement label | Value measured |
| --- | --- | --- | --- |
| CC(C)[C@H](NC(=O)[C@@H]1CCCN1C(=O)[C@@H](NC(=O)c1ccc(C(=O)NS(=O)(=O)c2ccc(Cl)cc2)cc1)C(C)C)B(O)O | UniProt P08246 | LipE | 7.46 |
| COC(=O)C1=C(C)N(c2cccc(C(F)(F)F)c2)c2n[nH]c(=O)n2C1c1ccc(C#N)cc1 (stereo not shown) | UniProt P08246 | LipE | 4.67 |
| CC1=C(C#N)[C@@H](c2ccc(C#N)cc2S(C)(=O)=O)N(C)C(=O)N1c1cccc(C(F)(F)F)c1 | UniProt P08246 | LipE | 6.85 |
| CC(C)[C@H](NC(=O)[C@@H]1CCCN1C(=O)[C@@H](NC(=O)c1ccc(C(=O)NCC(=O)O)cc1)C(C)C)B(O)O | UniProt P08246 | LipE | 10.2 |
| Cc1c(-c2ccnn2-c2ccc(C#N)cc2)cc(C(=O)NCC(O)CNC(=O)c2cc(-c3ccnn3-c3ccc(C#N)cc3)c(C)n(-c3cccc(C(F)(F)F)c3)c2=O)c(=O)n1-c1cccc(C(F)(F)F)c1 | UniProt P08246 | LipE | 1.87 |
| Cc1c(-c2ccnn2C)cc(C(=O)NCc2ccc(S(C)(=O)=O)cn2)c(=O)n1-c1cccc(C(F)(F)F)c1 | UniProt P08246 | LipE | 7.22 |
| COC(=O)C1=C(C)N(c2cccc(C(F)(F)F)c2)c2nn(CC(=O)N(C)CCC[N+](C)(C)C)c(=O)n2C1c1ccc(C#N)cc1 (stereo not shown) | UniProt P08246 | LipE | 9.45 |

====

- Tested target: human neutrophil elastase (Homo sapiens (Human))
- Sequence (P08246 30-247): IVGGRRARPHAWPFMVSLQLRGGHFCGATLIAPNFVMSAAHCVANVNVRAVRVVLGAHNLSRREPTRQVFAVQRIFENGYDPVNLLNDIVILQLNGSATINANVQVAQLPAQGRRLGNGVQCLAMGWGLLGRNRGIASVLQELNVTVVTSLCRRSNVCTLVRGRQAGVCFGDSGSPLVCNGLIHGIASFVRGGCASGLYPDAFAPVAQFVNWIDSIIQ
- Procedure details: Elastase inhibition assay, purified human neutrophil elastase
- Format: biochemical
- Conditions used: Purified NHE
- Experimental: Serially diluted compounds in DMSO were dispensed into a 384-well black opaque plate by Echo dispenser. […] Slope of fluorescence intensity vs. time representing the Vmax of enzyme activity was calculated with MARS software. % relative inhibition was calculated as: […] IC50 was calculated based on the % relative inhibition curve using log(agonist) vs. response (three parameters) method with Prism software. […]
# LipE values compiled below

| Molecule | LipE |
| --- | --- |
| CC(C)[C@H](NC(=O)[C@@H]1CCCN1C(=O)[C@@H](NC(=O)c1ccc(C(=O)NCC(=O)O)cc1)C(C)C)B(O)O | 10.1 |
| CC(C)[C@H](NC(=O)[C@@H]1CCCN1C(=O)[C@@H](NC(=O)c1ccc(C(=O)NS(=O)(=O)c2ccc(Cl)cc2)cc1)C(C)C)B(O)O | 7.33 |
| CC1=C(C#N)[C@@H](c2ccc(C#N)cc2S(C)(=O)=O)N(C)C(=O)N1c1cccc(C(F)(F)F)c1 | 6.76 |
| Cc1c(-c2ccnn2-c2ccc(C#N)cc2)cc(C(=O)NCC(O)CNC(=O)c2cc(-c3ccnn3-c3ccc(C#N)cc3)c(C)n(-c3cccc(C(F)(F)F)c3)c2=O)c(=O)n1-c1cccc(C(F)(F)F)c1 | 5.04 |
| Cc1c(-c2ccnn2C)cc(C(=O)NCc2ccc(S(C)(=O)=O)cn2)c(=O)n1-c1cccc(C(F)(F)F)c1 | 7.32 |
| COC(=O)C1=C(C)N(c2cccc(C(F)(F)F)c2)c2n[nH]c(=O)n2C1c1ccc(C#N)cc1 (stereo not shown) | 4.59 |
| COC(=O)C1=C(C)N(c2cccc(C(F)(F)F)c2)c2nn(CC(=O)N(C)CCC[N+](C)(C)C)c(=O)n2C1c1ccc(C#N)cc1 (stereo not shown) | 9.46 |

====

- Procedure details: in vitro
- Conditions used: human, Caco-2, pH 7.4

| Compound | efflux ratio at 2 h, 2 μM |
| --- | --- |
| CC(C)[C@H](NC(=O)[C@@H]1CCCN1C(=O)[C@@H](NC(=O)c1ccc(C(=O)NS(=O)(=O)c2ccc(Cl)cc2)cc1)C(C)C)B(O)O [Compound 51] | > 3.91 |
| C[C@H]1O[C@@H](O[C@H]2[C@@H](O)C[C@H](O[C@H]3[C@@H](O)C[C@H](O[C@H]4CC[C@@]5(C)[C@H](CC[C@@H]6[C@@H]5C[C@@H](O)[C@]5(C)[C@@H](C7=CC(=O)OC7)CC[C@]65O)C4)O[C@@H]3C)O[C@@H]2C)C[C@H](O)[C@@H]1O [Digoxin] | > 364 |

====

- Procedure details: in vitro
- Conditions used: mouse, microsomes, pH 7.4
# half-life at 1 μM values compiled below

| Item smiles | Value qualifier | half-life at 1 μM [min] |
| --- | --- | --- |
| O=C(O)Cc1ccccc1Nc1c(Cl)cccc1Cl | = | 51 |
| CC(C)[C@H](NC(=O)[C@@H]1CCCN1C(=O)[C@@H](NC(=O)c1ccc(C(=O)NS(=O)(=O)c2ccc(Cl)cc2)cc1)C(C)C)B(O)O | > | 145 |
| CC(C)[C@H](NC(=O)[C@@H]1CCCN1C(=O)[C@@H](NC(=O)c1ccc(C(=O)NCC(=O)O)cc1)C(C)C)B(O)O | > | 145 |
| C[C@]12CC[C@H]3[C@@H](CCC4=CC(=O)CC[C@@]43C)[C@@H]1CC[C@@H]2O | = | 2.3 |
| COC(=O)N[C@H](C(=O)N1CCC[C@H]1C(=O)N[C@H](B(O)O)C(C)C)C(C)C | > | 145 |

====

- Procedure details: in vitro
- Conditions used: human, Caco-2, pH 7.4
# Papp B→A at 120 min, 2 μM values compiled below

| Item smiles | Papp B→A at 120 min, 2 μM [nm/s] |
| --- | --- |
| CC(C)[C@H](NC(=O)[C@@H]1CCCN1C(=O)[C@@H](NC(=O)c1ccc(C(=O)NS(=O)(=O)c2ccc(Cl)cc2)cc1)C(C)C)B(O)O | 6.1 |
| C[C@H]1O[C@@H](O[C@H]2[C@@H](O)C[C@H](O[C@H]3[C@@H](O)C[C@H](O[C@H]4CC[C@@]5(C)[C@H](CC[C@@H]6[C@@H]5C[C@@H](O)[C@]5(C)[C@@H](C7=CC(=O)OC7)CC[C@]65O)C4)O[C@@H]3C)O[C@@H]2C)C[C@H](O)[C@@H]1O | 85 |

====

- Procedure details: Plasma Stability Assay
- Type: in vitro ADME, mouse
- Conditions used: CD-1 Mouse Plasma, 60 min

| Molecule | % Remaining (mean) / % |
| --- | --- |
| CC(C)[C@H](NC(=O)[C@@H]1CCCN1C(=O)[C@@H](NC(=O)c1ccc(C(=O)NS(=O)(=O)c2ccc(Cl)cc2)cc1)C(C)C)B(O)O [Compound 51] | 84.1 |
| CC(C)[N+](C)(CCOC(=O)C1c2ccccc2Oc2ccccc21)C(C)C [Propantheline] | 21.7 |
| CC(C)[C@H](NC(=O)[C@@H]1CCCN1C(=O)[C@@H](NC(=O)c1ccc(C(=O)NCC(=O)O)cc1)C(C)C)B(O)O [Compound 52] | 96.4 |
| COC(=O)N[C@H](C(=O)N1CCC[C@H]1C(=O)N[C@H](B(O)O)C(C)C)C(C)C [Compound 50] | 88.0 |

====

- Procedure details: in vitro
- Conditions used: human, Caco-2, pH 7.4
Measurement label: Papp B→A at 2 h, 2 μM

| Item smiles | Measurement label | Value measured |
| --- | --- | --- |
| CC(C)[C@H](NC(=O)[C@@H]1CCCN1C(=O)[C@@H](NC(=O)c1ccc(C(=O)NS(=O)(=O)c2ccc(Cl)cc2)cc1)C(C)C)B(O)O | Papp B→A at 2 h, 2 μM | < 0.12 ×10⁻⁶ cm/s |

====

- Procedure details: Caco-2 Permeability Assay
- Conditions used: human, Caco-2, pH 7.4
Measurement label: recovery at 2 h, 2 μM (%)

| Compound | Quantity unit | Value measured |
| --- | --- | --- |
| CC(Cc1ccc(O)cc1)NCC(O)c1cc(O)cc(O)c1 (stereo not shown) | % | 93.4 |

====

- Procedure details: in vitro
- Conditions used: human, Caco-2, pH 7.4
- Method: Digoxin, fenoterol, and propranol were used as standards respectively. Transport Method: The transport buffer used in the study was HBSS with 10 mM HEPES at pH 7.40±0.05. Compounds were tested at 2 μM bi-directionally in duplicates. […] Concentrations of test and control compounds in starting solution, donor solution, and receiver solution were quantified by LC/MS/MS methodologies, using peak area ratio of analyte/internal standard. […]
Measurement label: Papp A→B at 2 h, 2 μM

| Molecule | Value measured |
| --- | --- |
| CC(C)[C@H](NC(=O)[C@@H]1CCCN1C(=O)[C@@H](NC(=O)c1ccc(C(=O)NS(=O)(=O)c2ccc(Cl)cc2)cc1)C(C)C)B(O)O [Compound 51] | < 0.08 ×10⁻⁶ cm/s |

Cited source: patent US12415819B2
